# experimental_system: Phenylethanolamine N-methyltransferase (Homo sapiens)
# measurement_description: Confirmatory Screen for Target Class Profiling of Small Molecule Inhibitors of Methyltransferases (AID 1745852)
# measurement_parameters: MTase-Glo luminescence, SAH detection, recombinant enzyme; measured here: PNMT max response; stronger effect = lower value

>  <molecule>
CNC(=O)CN1CCC(Oc2cc3c(Nc4cccc(Cl)c4F)ncnc3cc2OC)CC1

>  <activity>
-49.9%

$$$$
>  <molecule>
Nc1ncnc2c1c(-c1cnc3[nH]ccc3c1)nn2C1CCCC1

>  <activity>
-52.4%

$$$$
>  <molecule>
Nc1ncnc2c1c(-c1cccc(OCc3ccccc3)c1)cn2C1CC(CN2CCCC2)C1 (stereo not drawn)

>  <activity>
-98.1%

$$$$

Reference source: PubChem BioAssay (NCATS)
